Where do the numbers come from? From ChEMBL document CHEMBL4513216.

Recorded cytotoxicity at 10 µM for the following compounds
assay: Toxicity liver stage against HepG2, at 10uM; assay type: cell-based; set-up: test concentration 10 uM, cell line HepG2-A16-CD81EGFP; settings: human, HepG2-A16-CD81EGFP cells; read-out: INHIBITION
Numeric only. Scale: %

Here are 5 compounds together with their reported answers.
> print(dat)
                                   compound                measure  units  recorded.result
1  CN1CC2(COCCN(c3ncccn3)C2)OCC1=O (stereo unspecified)  cytotoxicity at 10 µM      %             -112
2    CN(Cc1ccsc1)C(=O)Nc1ccc(S(C)(=O)=O)nc1  cytotoxicity at 10 µM      %             3.28
3  COCc1cccc(C(=O)N2CCCN(C(=O)OCC(C)C)CC2)c1  cytotoxicity at 10 µM      %              -10
4     CC(=O)Nc1cccc2c1ccn2CC(=O)Nc1ncc[nH]1  cytotoxicity at 10 µM      %             5.83
5  Cc1ccsc1CNC1CCCN(Cc2noc(C3CC3)n2)C1 (stereo unspecified)  cytotoxicity at 10 µM      %            -4.98

Let us move to another entry and its cytotoxicity at 10 µM.
For the compound COc1ccc(C(O)CNC(=O)Cn2ccc(=O)n(C)c2=O)cc1 (stereo unspecified) , what cytotoxicity at 10 µM is on record?
6.45
